Just for reference, ChEMBL document CHEMBL5550184 is where these values come from.

- assay.summary: Half-life in Wistar Hannover rat at 1 mg/kg, iv measured upto 24 hrs by LC-MS/MS analysis
- Assay type: ADME, organism-based
- condition.label: Wistar Hannover, in vivo
Positions of bridges follow the written chain, without caps; N, C: chain ends. Non-standard residues stand in square brackets, D forms with d. Residues, ends and D or L forms follow the SMILES beside them. *: point of attachment. hPhe(3-Cl-4-CF3) = N[C@@H](CCc1ccc(C(F)(F)F)c(Cl)c1)C(=O)O; NMeGly(cPent) = CN[C@H](C(=O)O)C1CCCC1; NMeCha = CN[C@@H](CC1CCCCC1)C(=O)O; NMeD = CN[C@@H](CC(=O)O)C(=O)O; NMeL = CN[C@@H](CC(C)C)C(=O)O; Morpholide = C1CN(*)CCO1; NMeA = CN[C@@H](C)C(=O)O; Ac5c = NC1(C(=O)O)CCCC1; Aze = O=C(O)[C@@H]1CCN1; Sar = CNCC(=O)O
measurement.label: half-life
Answer format: value, then unit.

Input: Dear colleague, I am looking for the recorded half-life of the following molecule: CC[C@H](C)[C@@H]1NC(=O)[C@H](CC(C)C)N(C)C(=O)C[C@@H](C(=O)N2CCOCC2)N(C)C(=O)[C@H](C2CCCC2)N(C)C(=O)C2(CCCC2)NC(=O)[C@@H]2CCCN2C(=O)[C@H](CCc2ccc(C(F)(F)F)c(Cl)c2)NC(=O)CN(C)C(=O)[C@H](CC2CCCCC2)N(C)C(=O)[C@@H]2CCN2C(=O)[C@H](C)N(C)C1=O ([NMeL]I[NMeA][Aze][NMeCha][Sar][hPhe(3-Cl-4-CF3)]P[Ac5c][NMeGly(cPent)][NMeD]-Morpholide; lactam N-11)
Output: 5.57 h
